Values were extracted from the supplement of paper PMC10567573.

B1: KRT13 (parent)
chain: TSSASVTTTSNASGRRTSDVRRP

- Variants of: B1
- experimentNotes: protein stability index of a GFP-peptide fusion (GPS, HEK-293T) (PSI 1-6); higher = more stable;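 further: lentivirally expressed fusions sorted by FACS into six bins by GFP to DsRed ratio, PSI derived from sequencing read proportions per bin multiplied by bin number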
- settings: c terminus: native
measurementKind: protein stability index

- seq: "TSSASFTTTSNASGRRTSDVRRP [V6F]"
  measurementKind: "protein stability index"
  endpointValue: 1.93
- seq: "TSSASNTTTSNASGRRTSDVRRP [V6N]"
  measurementKind: "protein stability index"
  endpointValue: 2.44
- seq: "TSSATVTTTSNASGRRTSDVRRP [S5T]"
  measurementKind: "protein stability index"
  endpointValue: 4.31
